- system-tested: T1, PCSK9 D374Y mutant protein inserted with biotin receiving peptide BP15 and His-tag: PCSK9-D374Y-BP15-His6 (human, UniProt Q8NBP7 153-692; A8T644 31-152, biotin on the BP15 biotin receiving peptide)
- T1 construct: also called PCSK9-Y; mutant PCSK9
- experimental-details: competition ELISA, LDLR-FC coated, biotin PCSK9-Y + antibody
- Description: The blocking ability of PCSK9 antibodies according to the present invention for the binding of LDLR-FC and PCSK9-Y (mutant PCSK9, SEQ ID NO: 6) was tested by measuring the amount of PCSK9-Y binding to LDLR in the presence of the antibodies. LDLR-FC (produced in-house, with sequence of SEQ ID NO: 8) was diluted to 2 μg/ml with phosphate buffer and was added into the 96-well ELISA plate, at 4° C. overnight. […]
endpoint-name: IC50 (µg/mL)
Give a bare numeral; the unit µg/mL is implied.

Item h011-3174 (antibody, V domains shown) VH: QVQLVQSGAEVKKPGASVKVSCKASGYTFTGYTIHWVRQAPGQGLEWMGYINPSSTYTKFNQKFKDRVTMTRDTSISTAYMELSRLRSDDTAVYYCARERIFSNYWFFDVWGQGTTVTVSS VL: DIVMTQSPSSLSASVGDRVTITCKASQNVYTAVAWYQQKPGKSPKLLIYQASNRYTGVPSRFSGSGSGTDFTLTISSLQPEDFATYFCQQYSSYPYTFGGGTKVEIK has what recorded IC50?
0.23

I have this binder here, h011-3065 (antibody, V domains shown) VH: QVQLVQSGAEVKKPGASVKVSCKASGYTFTGYDIHWVRQAPGQGLEWMGYINPSSTYTKFNQKFKDRVTMTRDTSISTAYMELSRLRSDDTAVYYCARERIYSNYWFFDVWGQGTTVTVSS VL: DIVMTQSPSSLSASVGDRVTITCKASQNVYTAVAWYQQKPGKSPKLLIYSASNRYTGVPSRFSGSGSGTDFTLTISSLQPEDFATYFCQQYSSYPYTFGGGTKVEIK , and I need its recorded IC50.
0.312

Please report the recorded IC50 for h011-3118 (antibody, V domains shown) VH: QVQLVQSGAEVKKPGASVKVSCKASGYTFTGYTIHWVRQAPGQGLEWMGYINPSSTYTKFNQKFKDRVTMTRDTSISTAYMELSRLRSDDTAVYYCARERIYSNYWFFDVWGQGTTVTVSS VL: DIVMTQSPSSLSASVGDRVTITCKASQNVYWEVVWYQQKPGKSPKLLIYSASNRYTGVPSRFSGSGSGTDFTLTISSLQPEDFATYFCQQYSSYPYTFGGGTKVEIK .
0.23
